Hello, the source for this data is patent US12275733B2, in case you need it.

Tested on: primary human chondrocyte pellet cultures
EXPERIMENT_DESCRIPTION: Chondrogenesis activity assay in primary human chondrocyte pellet cultures (proteoglycan (aggrecan) induction, Blyscan assay)
Format: cell-based
MEASUREMENT_PARAMETERS: Homo sapiens, Chondrocyte; maximum percent proteoglycan (aggrecan) induction relative to the internal reference compound at 10 μM
RESULT_TYPE: Emax

Use the examples below as a reference point.
COc1ccc(-c2cc(Cl)cc3c2[nH]c2c(C)nccc23)cc1 100 to 200%
OCCn1cc(-c2cc(Cl)cc3c4ccncc4n(CC(F)(F)F)c23)cn1 40 to 100%
Cc1nccc2c1[nH]c1c(-c3ccc(OCCn4cccn4)cc3)cc(Cl)cc12 > 200%
Cc1nccc2c1[nH]c1c(-c3ccc(OCC4(C)COC4)cc3)cc(Cl)c(C)c12 100 to 200%

I have 2 molecules here; please give me Emax for each one.
1. Cc1nccc2c1[nH]c1c(-c3ccc(CNC4CCCC4)cc3)cc(Cl)cc12
2. Cc1nccc2c1[nH]c1c(-c3cccc(NC(=O)Nc4ccc(F)cc4F)c3)cc(Cl)cc12

**Result**
["100 to 200%", "< 40%"]

Look up Emax for the entries below, preserving their order.
1. CCc1cc2c([nH]c3c(-c4ccc(OCCn5cccn5)cc4)cc(Br)cc32)c(C)n1
2. Cc1nccc2c1[nH]c1c(-c3cccc(N4CCOCC4)c3)cc(Cl)cc12

**Result**
["< 40%", "> 200%"]

---

Consider the following molecules; for each one, report its Emax.
Test system: primary human chondrocyte pellet cultures
EXPERIMENT_DESCRIPTION: Chondrogenesis activity assay in primary human chondrocyte pellet cultures (proteoglycan (aggrecan) induction, Blyscan assay)
Format: cell-based
MEASUREMENT_PARAMETERS: Homo sapiens, Chondrocyte; maximum percent proteoglycan (aggrecan) induction relative to the internal reference compound at 10 μM

As a guide, the following entries are already answered.
MOLECULE	Emax
Cc1nccc2c1[nH]c1c(-c3ccc(OCC4CCN(C)C4)cc3)cc(Cl)cc12 (stereo not drawn)	100 to 200%
CCn1c2cnccc2c2cc(Cl)cc(-c3ccc(Cl)nc3Cl)c21	100 to 200%
FC(F)(F)Cn1c2cnccc2c2cc(Cl)cc(-c3cnn(Cc4cccnc4)c3)c21	> 200%
Cc1nccc2c1[nH]c1c(-c3cccnc3OCc3ccccc3)cc(Cl)cc12	40 to 100%
Cc1nccc2c1[nH]c1c(-c3ccc4c(c3)OC(C)(C)C4)cc(Cl)cc12	< 40%

Could I get Emax for every one of these entries?
1. COc1ccc(-c2cc(Cl)cc3c4ccnc(C)c4n(C)c23)cc1
2. COc1ccc(-c2cc(Cl)c(C)c3c2[nH]c2c(C)nccc23)cc1
3. Cc1nccc2c1[nH]c1c(-c3ccc4c(c3)CCCO4)cc(Cl)cc12
4. Cc1ncc(-c2cc(Cl)cc3c4ccncc4n(CC(F)(F)F)c23)s1

**Result**
["> 200%", "> 200%", "40 to 100%", "> 200%"]

---

Please go through the items and note down their pEC50.
System: primary human chondrocyte pellet cultures
EXPERIMENT_DESCRIPTION: Chondrogenesis activity assay in primary human chondrocyte pellet cultures (proteoglycan (aggrecan) induction, Blyscan assay)
Assay type: cell-based
MEASUREMENT_PARAMETERS: 336 h; proteoglycan (aggrecan) induction, primary human chondrocyte pellets, 2 weeks culture
Answers are plain numbers, as −log10 of the molar value.

COMPOUND	RESULT_TYPE	REPORTED_MEASUREMENT
CCn1c2c(-c3cnn(Cc4cccnc4)c3)cc(Cl)cc2c2ccnc(C)c21	pEC50	5.89
Cc1nccc2c1[nH]c1c(-c3cccc(Oc4ncc(Br)cn4)c3)cc(Cl)cc12	pEC50	5.37
Cc1nccc2c1[nH]c1c(-c3cccc(C(O)c4ccccn4)c3)cc(Cl)cc12 (stereo not drawn)	pEC50	5.09
Cc1nccc2c1[nH]c1c(-c3ccc(OCC4CCN(C)C4)cc3)cc(Cl)cc12 (stereo not drawn)	pEC50	6.85
CCn1c2c(-c3ccc(OCC4(C)COC4)cc3)cc(Cl)cc2c2ccnc(C)c21	pEC50	5.89

Give one value of pEC50 per listed compound.
1. CCn1c2c(-c3cnn(C)c3)cc(Br)cc2c2ccnc(C)c21
2. Clc1cc(-c2ccc(Cl)nc2Cl)c2c(c1)c1ccncc1n2CC1CC1
3. Cc1nccc2c1[nH]c1c(-c3cccc(C=O)c3)cc(Cl)cc12
4. Clc1cc(-c2cnn(Cc3cccnc3)c2)c2c(c1)c1ccncc1n2CC1CC1

**Result**
[5.59, 6.00, 5.31, 5.92]

---

System: primary human chondrocyte pellet cultures
EXPERIMENT_DESCRIPTION: Chondrogenesis activity assay in primary human chondrocyte pellet cultures (proteoglycan (aggrecan) induction, Blyscan assay)
Assay type: cell-based
MEASUREMENT_PARAMETERS: Homo sapiens, Chondrocyte; maximum percent proteoglycan (aggrecan) induction relative to the internal reference compound at 10 μM
RESULT_TYPE: Emax

Take a look at these entries with their results.
Cc1nccc2c1[nH]c1c(-c3ccnc(N4CCNCC4)c3)cc(Cl)cc12 100 to 200%
Clc1cc(-c2ccc(Cl)nc2Cl)c2c(c1)c1ccncc1n2CC1CC1 100 to 200%
Cc1nccc2c1[nH]c1c(-c3ccc(OCCn4ccnc4)cc3)cc(Cl)cc12 100 to 200%
Cc1nccc2c1[nH]c1c(-c3cc(C(F)(F)F)cc(C(F)(F)F)c3)cc(Cl)cc12 40 to 100%

**Query** Name the reported Emax value associated with the compound CCn1c2c(-c3cnn(Cc4ccccn4)c3)cc(Cl)cc2c2ccnc(C)c21
**Result** > 200%

---

Test system: primary human chondrocyte pellet cultures
EXPERIMENT_DESCRIPTION: Chondrogenesis activity assay in primary human chondrocyte pellet cultures (proteoglycan (aggrecan) induction, Blyscan assay)
Format: cell-based
MEASUREMENT_PARAMETERS: 336 h; proteoglycan (aggrecan) induction, primary human chondrocyte pellets, 2 weeks culture
Provide the reported EC50 of each item.
Numbers only, in µM.

Each compound below has a recorded value; state its EC50.
1. COc1ccc(-c2cc(C#N)cc3c2[nH]c2c(C)nccc23)cc1
2. FC(F)(F)Cn1c2cnccc2c2cc(Cl)cc(-c3cnn(Cc4cccnc4)c3)c21
3. CCc1cc2c([nH]c3c(-c4ccc(OCCn5cccn5)cc4)cc(Br)cc32)c(C)n1
4. FC(F)(F)Cn1c2cnccc2c2cc(Cl)cc(-c3cnn(-c4ccccc4)c3)c21

**Result**
0.83
4.4
8.9
7.9

---

Test system: primary human chondrocyte pellet cultures
EXPERIMENT_DESCRIPTION: Chondrogenesis activity assay in primary human chondrocyte pellet cultures (proteoglycan (aggrecan) induction, Blyscan assay)
Type: cell-based
MEASUREMENT_PARAMETERS: 336 h; proteoglycan (aggrecan) induction, primary human chondrocyte pellets, 2 weeks culture
Task for the reader: assign each of the following compounds its reported EC50.
Answers are plain numbers, in µM.

Below: 3 compounds and their reported EC50.
COMPOUND	RESULT_TYPE	REPORTED_MEASUREMENT
COc1ccc(-c2cc(Br)cc3c2[nH]c2c(C)nc(C)cc23)cc1 [Example 217]	EC50	4.9
Cc1nccc2c1[nH]c1c(-c3cccc(C(=O)NCCN(C)C)c3)cc(Cl)cc12 [Example 265]	EC50	3.8
CCc1cc2c3cc(Br)cc(-c4cnn(C)c4)c3n(CC)c2c(C)n1 [Example 216]	EC50	0.99

**Query** GET /values?readout=EC50&item= Cc1nccc2c1[nH]c1c(-c3ccc(N4CCN(C)CC4)nc3)cc(Cl)cc12 [Example 118]
**Result** 1.3

---

System: primary human chondrocyte pellet cultures
EXPERIMENT_DESCRIPTION: Chondrogenesis activity assay in primary human chondrocyte pellet cultures (proteoglycan (aggrecan) induction, Blyscan assay)
Format: cell-based
MEASUREMENT_PARAMETERS: Homo sapiens, Chondrocyte; maximum percent proteoglycan (aggrecan) induction relative to the internal reference compound at 10 μM
What Emax was measured for each of the following?

Your task in this section: give Emax for each listed record.
1. CCc1cc2c3cc(Br)cc(-c4cnn(C)c4)c3n(CC)c2c(C)n1
2. Cc1nccc2c1[nH]c1c(-c3ccc(CN)cc3)cc(Cl)cc12
3. Cc1nccc2c1[nH]c1c(-c3ccnc(N4CCN(C)CC4)c3)cc(Cl)cc12
4. COc1ccc(-c2cc(C#N)cc3c2[nH]c2c(C)nccc23)cc1
5. Cc1nccc2c1[nH]c1c(-c3ccc(N4CCN(C)CC4)nc3)cc(Cl)cc12
6. Cc1nccc2c1[nH]c1c(-c3cccc(OCc4nccn4C)c3)cc(Cl)cc12
7. Cc1nccc2c1[nH]c1c(-c3ccc(OCc4ccc5ccccc5n4)cc3)cc(Cl)cc12

**Result**
["> 200%", "100 to 200%", "100 to 200%", "100 to 200%", "100 to 200%", "> 200%", "> 200%"]

---

Please respond with reported EC50 for every item in the list.
Test system: primary human chondrocyte pellet cultures
EXPERIMENT_DESCRIPTION: Chondrogenesis activity assay in primary human chondrocyte pellet cultures (proteoglycan (aggrecan) induction, Blyscan assay)
Format: cell-based
MEASUREMENT_PARAMETERS: 336 h; proteoglycan (aggrecan) induction, primary human chondrocyte pellets, 2 weeks culture
Answers are plain numbers, in µM.

# count of solved cases: 5
COMPOUND	REPORTED_MEASUREMENT
Cc1ncc(-c2cc(Cl)cc3c4ccncc4n(CC(F)(F)F)c23)s1 [Example 171]	4
Cc1nccc2c1[nH]c1c(-c3c[nH]nc3Cc3ccccc3)cc(Cl)cc12 [Example 199]	22
COc1ccc(-c2cc(Cl)cc3c2[nH]c2c(C)nccc23)cc1Cl [Example 206]	19
Cc1nccc2c1[nH]c1c(-c3ccc(OCCn4cccn4)cc3)cc(Cl)c(C)c12 [Example 45]	0.22
Cc1nccc2c1[nH]c1c(-c3ccc(OCc4ccc5ccccc5n4)cc3)cc(Cl)cc12 [Example 34]	3.8

**Query** Entry Cc1nccc2c1[nH]c1c(-c3ccc4c(c3)CC(C)(C)O4)cc(Cl)cc12 [Example 236] has what EC50?
**Result** 4.6
